As shown below, each of these molecules has a reported growth value.
Test system: HOP-62 NSCLC
procedureText: NCI-60 one-dose screen, 48 h (100 = growth as untreated, 0 = no growth, -100 = all killed)
experimentalSetup: 10 µM unless noted
This is part of a sample that, as a whole, favours compounds with a hit. Of some 83,000 tested, about 20% had one in any assay.
recordedMetric: growth (%)

- molecule: "CC1=C(CC(=O)c2cccc([N+](=O)[O-])c2)C(=O)c2ccccc2C1=O"
  targetSystem: "HOP-62 NSCLC"
  observedValue: -67.2
- molecule: "O=c1oc2ccc(Br)cc2c(=O)n1-c1ccc(Br)cc1F"
  targetSystem: "HOP-62 NSCLC"
  observedValue: -4.63
- molecule: "COc1ccc(OC)c(/C=C/C(=O)c2c(C)nc3ccccc3c2/C=C/c2ccccc2)c1"
  targetSystem: "HOP-62 NSCLC"
  observedValue: 90.7
- molecule: "COc1ccc(C2Nc3nc(OC)n(C)c(=O)c3N=C3c4ccccc4C(=O)C32)cc1 (stereo unspecified)"
  targetSystem: "HOP-62 NSCLC"
  observedValue: 91.1
- molecule: "COc1cc(/C=C2\\CN(C)C/C(=C\\c3cc(CN4CCCC4)c(O)c(OC)c3)C2=O)cc(CN2CCCC2)c1O"
  targetSystem: "HOP-62 NSCLC"
  observedValue: 82
- molecule: "O=c1oc2ccc(Cl)cc2c(=O)n1-c1ccc(I)cc1F"
  targetSystem: "HOP-62 NSCLC"
  observedValue: 0.787
- molecule: "O=C(N=Nc1c(O)[nH]c2ccccc12)c1oc2ccccc2c1CN1CCN(c2ccccc2)CC1"
  targetSystem: "HOP-62 NSCLC"
  observedValue: 7.31
- molecule: "CCCSC1=NC2C(N(CC)C(=O)N2CC)N1/N=C/C=C/c1ccccc1[N+](=O)[O-] (stereo unspecified)"
  targetSystem: "HOP-62 NSCLC"
  observedValue: 49.8
- molecule: "O=C(Nc1ccc(C23CC4CC(CC(c5ccccc5)(C4)C2)C3)cc1)c1cccs1"
  targetSystem: "HOP-62 NSCLC"
  observedValue: 119
- molecule: "O=C(/C=C/c1cccc(Cl)c1)OCc1ccc2cc1OCC#C/C=C\\C#CCO2"
  targetSystem: "HOP-62 NSCLC"
  observedValue: 100
- molecule: "O=Cc1c(OCc2cnnn2CC(=O)Nc2ccc(Br)cc2)ccc2ccccc12"
  targetSystem: "HOP-62 NSCLC"
  observedValue: 97.7
- molecule: "CCOC(=O)c1ccc(N=Cc2sc(=O)[nH]c2O)cc1"
  targetSystem: "HOP-62 NSCLC"
  observedValue: 95.4
- molecule: "O=C(Nc1ccc(N2CCNCC2)cc1)c1[nH]ncc1Nc1cc(C2CC2)ncn1"
  targetSystem: "HOP-62 NSCLC"
  observedValue: 66.4
- molecule: "COc1ccc(-c2nc(-c3ccccn3)c(-c3ccccn3)n2CC(C)C)cc1OC1CCCC1"
  targetSystem: "HOP-62 NSCLC"
  observedValue: 28.3
- molecule: "COc1ccc(/C=C2\\NC(=O)NC2=O)cc1O"
  targetSystem: "HOP-62 NSCLC"
  observedValue: 108
- molecule: "COc1ccc(/C=C/C(=O)c2c(C)nc3ccccc3c2/C=C/c2ccccc2)c(OC)c1"
  targetSystem: "HOP-62 NSCLC"
  observedValue: 108
- molecule: "Fc1cccc(COc2ccc(Nc3ncnc4onc(-c5ccccc5)c34)cc2)c1"
  targetSystem: "HOP-62 NSCLC"
  observedValue: 33.4
- molecule: "Nc1ccccc1-c1ccc(-c2ccc(Cl)cc2)c2c1[nH]c1ccccc12"
  targetSystem: "HOP-62 NSCLC"
  observedValue: 79.5
- molecule: "O=C1NC(=O)C(=Cc2cn(Cc3cn(Cc4ccc(Cl)cc4Cl)nn3)c3ccccc23)C(=O)N1"
  targetSystem: "HOP-62 NSCLC"
  observedValue: 94.3
- molecule: "O=C1Nc2ccccc2/C1=C/c1cccs1"
  targetSystem: "HOP-62 NSCLC"
  observedValue: 83.5
- molecule: "Clc1ccc(Oc2ccc(Nc3ncnc4onc(-c5ccccc5)c34)cc2)c(Cl)c1"
  targetSystem: "HOP-62 NSCLC"
  observedValue: 104

====

Test system: UACC-257 melanoma
procedureText: NCI-60 one-dose screen, 48 h (100 = growth as untreated, 0 = no growth, -100 = all killed)
experimentalSetup: 10 µM unless noted
Compounds without any hit were thinned out: in the full panel of roughly 83,000, 20% have a hit.
As shown below, each of these compounds has a reported growth value.
recordedMetric: growth (%)

- compound: "COc1ccc(/C=C/C(=O)c2c(C)nc3ccccc3c2/C=C/c2ccccc2)c(OC)c1"
  observedValue: 104
- compound: "Cc1ccc2[nH]c(=O)cc(-n3nncc3Cn3c4ccccc4c4ccccc43)c2c1"
  observedValue: 97.5
- compound: "O=c1oc2ccc(-c3ccc(F)cc3F)cc2c(=O)n1-c1ccc(Cl)c(C(F)(F)F)c1"
  observedValue: -9.78
- compound: "CC(=O)Nc1nc2c(s1)CCc1c-2cn(S(=O)(=O)c2ccccc2)c1-c1ccccc1"
  observedValue: 93
- compound: "CCCCCCCCCCCCCCn1cc(C2=C(c3coc4ccc(OC)cc34)C(=O)NC2=O)c2ccccc21"
  observedValue: 96.8
- compound: "CCOC(=O)c1sc(-c2ccc(OS(=O)(=O)c3ccc(Br)s3)c(C=O)c2)nc1C"
  observedValue: 28.8
- compound: "O=c1oc2ccc(F)cc2c(=O)n1-c1ccc(Cl)cc1F"
  observedValue: -17.4
- compound: "CN(CCc1ccccc1)C(=S)N(C(=O)c1ccc([N+](=O)[O-])cc1)c1ccc(Cl)cc1"
  observedValue: 101
- compound: "O=c1c2cc(F)ccc2sc2c(Nc3ccncc3)nc3ccccc3c12"
  observedValue: 113
- compound: "COc1cc(/C=C/C(=O)c2c(C)nc3ccccc3c2/C=C/c2ccccc2)cc(OC)c1OC"
  observedValue: 42.1
- compound: "COc1ccc(OC)c(NC(=O)/C(C#N)=C/c2ccco2)c1"
  observedValue: 90.7
- compound: "COc1ccc2sc(N(Cc3cccnc3)C(=O)c3ccc(C#N)cc3)nc2c1"
  observedValue: -46.3
- compound: "Cc1ccc2c(n1)C(=O)C(Oc1ccc(Br)cc1)=CC2=O"
  observedValue: 106
- compound: "N#C/C(=C1\\SC(=O)CN1c1ccccc1)c1nc2ccccc2s1"
  observedValue: 97
- compound: "COc1c(B(O)O)cccc1-c1nc2ccc3n[nH]c(F)c3c2c2c1CCCC2"
  observedValue: 121
- compound: "C#CCn1cc(C=C2C(=O)NC(=O)NC2=O)c2cc(Cl)ccc21"
  observedValue: 94.6
- compound: "COc1cccc2cc(N(C)c3nc(C)nc4ccsc34)ccc12"
  observedValue: 37.7
- compound: "COC(=O)c1c2c(c(C)[n+]([O-])c1C)C(=O)C(NCc1ccc(F)c(F)c1)=CC2=O"
  observedValue: -30
- compound: "C[n+]1c2ccccc2nc2ccc(NCCO)cc21"
  observedValue: 99.2
- compound: "O=c1oc2ccc(I)cc2c(=O)n1-c1ccc(F)cc1F"
  observedValue: -4.46
- compound: "O=CCCCC(O)C=O (configuration not stated)"
  observedValue: 106
- compound: "Fc1cccc(COc2ccc(Nc3ncnc4onc(-c5ccccc5)c34)cc2)c1"
  observedValue: 54.8

====

As shown below, each of these compounds has a reported growth value.
Test system: OVCAR-3 ovarian
procedureText: NCI-60 one-dose screen, 48 h (100 = growth as untreated, 0 = no growth, -100 = all killed)
experimentalSetup: 10 µM unless noted
Procedure: Growth inhibition of the OVCAR-3 human tumor cell line is measured as a screen for anti-cancer activity. Cells are grown in 96 well plates and exposed to the test compound for 48 hours. Compounds are tested at a single concentration, which is 10^-5 M for most compounds. The reported endpoint is percent growth (GI% or GIPRCNT), where numbers from 0 - 100% represent growth inhibition, and numbers from -100% - 0 represent cell death. For example, a value of 40 represents 60% growth inhibition. […]
This is part of a sample that, as a whole, favours compounds with a hit. Of some 83,000 tested, about 20% had one in any assay. The source made the active and inactive calls. Rule for the calls: active = growth percent below 10; inactive = the rest.

- givenSmiles: "Cc1nc(Nc2ccccn2)sc1C(=O)/C=C/c1ccc(Cl)cc1"
  targetSystem: "OVCAR-3 ovarian"
  growth: "-23.2% (active)"
- givenSmiles: "C[C@@H](C(=O)NCCCC#Cc1cnc(Nc2ccc(C#N)cc2)nc1NC1CC1)N(C)C(=O)/C=C/CN(C)C"
  targetSystem: "OVCAR-3 ovarian"
  growth: "29.3% (inactive)"
- givenSmiles: "CC[C@@H](C)[C@H](NC(=O)Cn1cc(CNC(=O)[C@@H](NC(=O)OCc2ccccc2)C(C)C)nn1)C(=O)O"
  targetSystem: "OVCAR-3 ovarian"
  growth: "119% (inactive)"
- givenSmiles: "COc1cc(C=C2C(=O)N(C)C(=O)N(C)C2=O)cc(CN2CCCCC2)c1O"
  targetSystem: "OVCAR-3 ovarian"
  growth: "105% (inactive)"
- givenSmiles: "COc1cc2nc(-c3cnc(N(C)C)nc3)nc(NC3CCN(Cc4ccccc4)CC3)c2cc1OC"
  targetSystem: "OVCAR-3 ovarian"
  growth: "-85.1% (active)"

Every entry's value here was drawn from PubChem BioAssay (NCI).
